Reference source for all entries: PubChem BioAssay (NCI)

- Tested on: HOP-92 NSCLC
- method.description: NCI tumour cell line growth inhibition, 48 h
Below, each entry is listed with its recorded TGI.
The figure you give is taken to be in µM; do not add the unit.

Worked cases, answers included:
[
  {
    "compound": "CS(=O)(=O)CS(=O)(=O)OCCCl",
    "value.type": "TGI",
    "val": 824
  },
  {
    "compound": "NC(=O)CNc1ccc([As]=[As]c2ccc(NCC(N)=O)cc2)cc1 (stereo not given)",
    "value.type": "TGI",
    "val": 15.1
  },
  {
    "compound": "O=C(N[C@@H](Cc1coc2ccccc12)B(O)O)[C@@H]1C[C@H]2CC[C@@H]1O2",
    "value.type": "TGI",
    "val": 80.8
  }
]

For this compound ( N/C(=N\S(=O)(=O)c1ccc(-c2ncccc2C(F)(F)F)s1)Nc1ccc(Cl)cc1 ), measured TGI is 30
